- Test system: T. brucei cell line from which all aquaporins were knocked out (AQP1-3 KO)
- Assay overview: microbe, parasite or virus in culture
- Assay type: cell-based, T. b. brucei
- Assay setup: Trypanosoma brucei, read-out: T. b. brucei EC50 AQP1-3 KO
Property: pEC50
One number for each entry, as −log10 of the molar value.

Cc1cc(O)cc(O)c1C(=O)NCCCCCCCCCCCCOc1ccc(N=C2N(C(=O)OC(C)(C)C)CCN2C(=O)OC(C)(C)C)cc1 [14c] | 4.80
CC(=O)O.Cc1cc(O)cc(O)c1C(=O)NCCCCCCCCCCCCOc1ccc(N=C2NCCN2)cc1 | 5.41
CC(=O)O.Cc1cc(O)cc(O)c1C(=O)NCCCCCCOc1ccc(C(=N)N)cc1 | 4.76
Cc1cc(O)cc(O)c1C(=O)NCCCCCCOc1ccc(C#N)cc1 | 4.52
Cc1cc(O)cc(O)c1C(=O)NCCCCCCOc1ccc(C(=N)NO)cc1 | 4.68

For each of the molecules below, note its pEC50.
1. Cc1cc(O)cc(O)c1C(=O)NCCCCCCCCCCCCOc1ccc(N)cc1 [12c]
2. Cc1cc(O)c(C(=O)CCCCCCCCCCCCCCCOc2ccc(C#N)cc2)c(O)c1
3. Cc1cc(O)cc(O)c1C(=O)NCCCCCCCCCCCCOc1ccc([N+](=O)[O-])cc1 [11c]
4. N=C(N)c1ccc(OCCCCCOc2ccc(C(=N)N)cc2)cc1 [pentamidine, reference compound]
5. CC(=O)O.Cc1cc(O)cc(O)c1C(=O)NCCCCCCCCCCCCOc1ccc(C2=NCCN2)cc1

## Result
4.53
5.09
4.99
7.34
5.54
